- study system: T1, Anti-PSMA Fab (SEQ ID NOs: 19, 20)
- T1 construct: Biotinylated and captured on neutravidin coated plates in the phage ELISA; also called 006 PSMA Fab
- assay comment: phage binding ELISA; biotinylated Fab on neutravidin plate, anti-M13 HRP detection
Catalogue of binders with associated Anti-PSMA Fab (SEQ ID NOs: 19, 20) signal
Response field accepts a number only; no unit should be typed.

Check out these entries, answers already filled in.
binder	observed measurement
LEKWCIPSWMCDGM (Clonal phage of the peptide-180 library, tested as crude phage supernatant; not shown: fused to pIII of the bacteriophage) [Phage-2197]	1.62
DVNWCTPPWMCWGF (Clonal phage of the peptide-180 library, tested as crude phage supernatant; not shown: fused to pIII of the bacteriophage) [Phage-2198]	1.62
HAMWCIPAWMCENL (Clonal phage of the peptide-180 library, tested as crude phage supernatant; not shown: fused to pIII of the bacteriophage) [Phage-2194]	1.63
MERWCIPEWMCERT (Clonal phage of the peptide-180 library, tested as crude phage supernatant; not shown: fused to pIII of the bacteriophage) [Phage-2203]	1.61
LYKWCMPAWMCEQK (Clonal phage of the peptide-180 library, tested as crude phage supernatant; not shown: fused to pIII of the bacteriophage) [Phage-2195]	1.62

Next up:
**Query** Return reported Anti-PSMA Fab (SEQ ID NOs: 19, 20) signal; argument: VDRLCTPEWMCSGF (Clonal phage of the peptide-180 library, tested as crude phage supernatant; not shown: fused to pIII of the bacteriophage) [Phage-2205]
**Result** 1.61

Where do the numbers come from? From patent US20260242478A1.
